- procedure.summary: Clearance in rat at 5 mg/kg, iv
- Assay type: ADME, organism-based
- Parameters: dose 5 mg/kg, route intravenous
- measurement.parameters: in vivo
recorded.endpoint: clearance (mL/min/kg)

CN(C)CC(C)(C)COc1cccc(-c2sc(Nc3cccnc3Oc3ccccc3C(C)(C)C)nc2C(F)(F)F)c1 = 6.7

---

- procedure.summary: Oral bioavailability in rat
- Format: ADME, organism-based
- measurement.parameters: in vivo
recorded.endpoint: bioavailability (%)

CN(C)CC(C)(C)COc1cccc(-c2sc(Nc3cccnc3Oc3ccccc3C(C)(C)C)nc2C(F)(F)F)c1 = 27

---

Consider molecules characterized by their Ki with P2Y purinoceptor 1 (Homo sapiens, UniProt P47900).
Sequence (P47900 whole entry): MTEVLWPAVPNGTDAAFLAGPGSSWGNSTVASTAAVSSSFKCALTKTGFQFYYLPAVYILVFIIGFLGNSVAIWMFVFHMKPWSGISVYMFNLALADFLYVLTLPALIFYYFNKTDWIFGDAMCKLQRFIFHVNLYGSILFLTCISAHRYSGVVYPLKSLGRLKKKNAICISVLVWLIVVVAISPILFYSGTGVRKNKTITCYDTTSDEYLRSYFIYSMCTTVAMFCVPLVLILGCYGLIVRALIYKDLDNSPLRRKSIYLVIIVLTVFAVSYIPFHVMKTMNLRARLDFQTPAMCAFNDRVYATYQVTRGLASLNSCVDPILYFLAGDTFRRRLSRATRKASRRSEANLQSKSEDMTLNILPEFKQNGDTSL
recorded.endpoint: Ki (nM)

Cc1ccccc1-c1sc(Nc2cccnc2Oc2ccccc2C(C)(C)C)nc1C(F)(F)F = 11
Cc1sc(Nc2cccnc2Oc2ccccc2C(C)(C)C)nc1C(F)(F)F = 11
Cc1noc(-c2sc(Nc3cccnc3Oc3ccccc3C(C)(C)C)nc2C(F)(F)F)n1 = 6
CC(C)(C)c1ccccc1Oc1ncccc1Nc1nc(C(F)(F)F)c(-c2ccccc2)s1 = 7
CCc1nc(Nc2cccnc2Oc2ccccc2C(C)(C)C)sc1-c1ccccc1 = 12
CC(C)(C)c1ccccc1Oc1ncccc1Nc1nc(C(F)(F)F)c(C(N)=O)s1 = 4850
CC(C)(C)c1ccccc1Oc1ncccc1Nc1nc(C(F)(F)F)c(C#N)s1 = 21
CN(C)C(=O)c1nc(Nc2cccnc2Oc2ccccc2C(C)(C)C)sc1-c1ccccc1 = 186
CC(C)(C)c1ccccc1Oc1ncccc1Nc1nc(C(F)(F)F)c(-c2ccc(C#N)cc2)s1 = 13

Where these numbers come from: ChEMBL document CHEMBL2401677
